Target: HLA-DR4(B1*0401) (Homo sapiens, UniProt P01903+P01911, A100K/A169T/F76Y/I96L/K127E/L162R/M171V/N62H/P40V/Q125Y/R42H/S133A/S149N/S66Y/V115G/V209L/W38E)
Assay: HLA-DR4 competition peptide binding assay
Details: Table 2; competition with biotinylated HA307-319 (Y309F) 50 nM, purified HLA-DR4 30 nM, pH 5, 48 h, room temperature; read-out: HLA-DR binding IC50
Method: HLA-DR bound marker peptide was separated from free marker peptide and the amount of bound marker peptide was detected and quantified by enhanced chemoluminescense. Inhibition curves were generated and the IC50 was determined. The concentration of competitor peptide inducing 50% inhibition of marker peptide binding was determined, and expressed as the 50% inhibitory concentration (IC50 in μM).
pIC50: −log10 of the molar value. No end group written: not given here.
measurement_kind: pIC50

macromolecule_sequence="RSFTLASAETGVG [Compound 17]" numeric_value=7.30
macromolecule_sequence="RSFTLASSEAGVG [Compound 19]" numeric_value=7.40

1 = RSFTLASSETAVG [Compound 20]
2 = RAFTLASSETGVG [Compound 11]
Problem: Endpoint returns the identifier whose pIC50 is numerically larger, either 1 or 2 . Answer by quoting the chosen item's label.
Solution: 1
